# TESTED TARGET: BRM (Homo sapiens)
# Construct: made in house; host or cells: High Five insect cells
# Sequence (P51531 whole entry): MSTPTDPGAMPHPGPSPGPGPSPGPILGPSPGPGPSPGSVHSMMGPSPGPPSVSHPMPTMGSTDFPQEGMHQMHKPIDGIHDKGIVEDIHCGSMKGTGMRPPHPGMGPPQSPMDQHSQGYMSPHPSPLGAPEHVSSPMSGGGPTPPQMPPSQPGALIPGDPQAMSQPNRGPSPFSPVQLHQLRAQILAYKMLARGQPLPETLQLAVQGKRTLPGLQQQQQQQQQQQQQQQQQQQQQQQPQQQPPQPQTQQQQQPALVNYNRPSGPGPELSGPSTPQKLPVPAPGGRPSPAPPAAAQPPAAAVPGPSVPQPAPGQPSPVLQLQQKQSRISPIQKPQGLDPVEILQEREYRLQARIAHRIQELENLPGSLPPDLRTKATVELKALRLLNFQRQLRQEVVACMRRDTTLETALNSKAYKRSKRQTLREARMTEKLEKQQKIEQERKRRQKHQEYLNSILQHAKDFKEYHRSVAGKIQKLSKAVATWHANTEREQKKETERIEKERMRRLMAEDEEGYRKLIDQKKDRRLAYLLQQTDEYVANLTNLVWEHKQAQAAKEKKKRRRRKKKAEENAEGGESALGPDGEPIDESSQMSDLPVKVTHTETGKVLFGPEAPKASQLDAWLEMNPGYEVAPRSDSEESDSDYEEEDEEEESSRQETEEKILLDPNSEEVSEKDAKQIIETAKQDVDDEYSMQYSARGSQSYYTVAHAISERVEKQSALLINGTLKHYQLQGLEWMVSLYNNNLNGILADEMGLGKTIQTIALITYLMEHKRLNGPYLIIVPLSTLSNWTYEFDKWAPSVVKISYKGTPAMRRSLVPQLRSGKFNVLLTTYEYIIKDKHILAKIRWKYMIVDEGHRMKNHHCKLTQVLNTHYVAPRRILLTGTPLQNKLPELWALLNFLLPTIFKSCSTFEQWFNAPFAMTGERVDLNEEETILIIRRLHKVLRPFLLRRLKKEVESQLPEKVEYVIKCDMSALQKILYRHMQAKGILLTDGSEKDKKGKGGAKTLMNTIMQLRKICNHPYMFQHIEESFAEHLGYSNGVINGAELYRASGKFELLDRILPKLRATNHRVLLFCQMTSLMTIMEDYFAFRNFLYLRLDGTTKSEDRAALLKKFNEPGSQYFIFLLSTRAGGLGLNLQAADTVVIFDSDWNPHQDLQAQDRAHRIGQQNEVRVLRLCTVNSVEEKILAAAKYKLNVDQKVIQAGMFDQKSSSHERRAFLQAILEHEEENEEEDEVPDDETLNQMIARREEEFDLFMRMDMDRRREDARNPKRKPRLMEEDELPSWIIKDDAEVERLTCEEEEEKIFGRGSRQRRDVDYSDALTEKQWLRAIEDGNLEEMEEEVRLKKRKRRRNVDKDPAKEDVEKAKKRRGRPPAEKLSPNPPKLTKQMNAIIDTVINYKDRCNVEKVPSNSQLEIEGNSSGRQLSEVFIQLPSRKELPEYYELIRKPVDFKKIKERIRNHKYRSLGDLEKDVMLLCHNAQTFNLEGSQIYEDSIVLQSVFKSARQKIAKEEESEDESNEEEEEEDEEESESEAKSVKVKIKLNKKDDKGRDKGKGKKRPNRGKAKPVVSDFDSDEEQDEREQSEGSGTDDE
# ASSAY COMMENT: ATPase catalytic activity assay (ADP-Glo), BRM
# Format: biochemical
# TEST CONDITIONS: ATPase assay, selectivity BRG1/BRM, Table 10
# Protocol: The ATPase catalytic activity of BRM or BRG-1 was measured by an in vitro biochemical assay using ADP-Glo™ (Promega, V9102). The ADP-Glo™ kinase assay is performed in two steps once the reaction is complete. The first step is to deplete any unconsumed ATP in the reaction. The second step is to convert the reaction product ADP to ATP, which will be utilized by the luciferase to generate luminesce and be detected by a luminescence reader, such as Envision. […]
Quick reference: Ratio (BRG1 IC50 (μM) divided by BRM IC50 (μM)) of the listed items.
Could you respond with only the numeric value?

| MOLECULE | NUMBER |
| --- | --- |
| O=C(NCc1cc2nc(N3CCOc4ccc(C(F)F)nc43)ccc2cn1)c1cc(F)c2c(c1)S(=O)(=O)[C@@H](F)CCO2 | 21.73 |

Ratio (BRG1 IC50 (μM) divided by BRM IC50 (μM)) for [2H]C1([2H])Oc2c(F)cc(C(=O)NCc3cc4nc(N5CCOc6cc(N7CC(F)C7)cnc65)ccc4cn3)cc2S(=O)(=O)[C@@]([2H])(F)C1([2H])[2H] ?
16.27

Query C[C@H](NC(=O)c1cc(F)c2c(c1)S(=O)(=O)[C@@H](F)COC2)c1cc2nc(N3CCOc4ccc(C(F)F)nc43)ccc2cn1 next
34.05

Query O=C(NCc1cc2nc(N3CCOc4cc(F)cnc43)ccc2cn1)c1cc(F)c2c(c1)S(=O)(=O)[C@@H](F)CCO2 [Compound 282] next
17.58

Query O=C(NCc1cc2nc(N3CCOc4c(N5CCC5)ccnc43)ccc2cn1)c1cc(F)c2c(c1)S(=O)(=O)[C@@H](F)CCO2 next
21.94

Query O=C(NCc1cc2nc(N3CCOc4ccc(C5CC5)nc43)ccc2cn1)c1cc(F)c2c(c1)S(=O)(=O)[C@@H](F)COC2 next
21.76

Query O=C(NCc1cc2nc(N3CCOc4cc(N5CC(F)(F)C5)cnc43)ccc2cn1)c1cc(F)c2c(c1)S(=O)(=O)[C@@H](F)CCO2 next
25.74

Query O=C(NCc1cc2nc(N3CCOc4cc(C#CC5CC5)cnc43)ccc2cn1)c1cc(F)c2c(c1)S(=O)(=O)[C@@H](F)COC2 next
11.01

Query O=C(NCc1cc2nc(N3CCOc4ccc([C@@H]5C[C@H]5C(F)F)nc43)ccc2cn1)c1cc(F)c2c(c1)S(=O)(=O)[C@@H](F)CCO2 next
12.84

Query Cc1cc2c(-c3ccc4cnc(CNC(=O)c5cc(F)c6c(c5)S(=O)(=O)[C@@H](F)CCO6)cc4n3)cccc2n1C next
9.63

Query COc1ccc(-c2ccc3cnc(CNC(=O)c4cc(F)c5c(c4)S(=O)(=O)[C@@H](F)CCO5)cc3n2)nc1[C@@H]1CC1(F)F [Compound 273] next
23.61

Query O=C(NCc1cc2nc(N3CCCc4c(OC5CC5)ncc(F)c43)ccc2cn1)c1cc(F)c2c(c1)S(=O)(=O)[C@@H](F)CCO2 next
19.49

###

Quick reference: pIC50 of the listed items.
# TESTED TARGET: BRM (Homo sapiens)
FYI, pIC50 means -log10 of a concentration in mol per litre.

| SMILES STR | METRIC | NUMBER |
| --- | --- | --- |
| O=C(NCc1cc2nc(-c3cccc(OC(F)F)n3)ccc2cn1)c1ccc2c(c1)S(=O)(=O)[C@@H](F)CCOC2 | pIC50 | 8.70 |
| C[C@@H]1CN(c2cccc(-c3ccc4cnc(CNC(=O)c5cc(F)c6c(c5)S(=O)(=O)[C@@H](F)CO[C@@H]6C)cc4n3)n2)C[C@H](C)O1 | pIC50 | 8.34 |

Continue with the molecule presented below.
pIC50 for COc1nc(C(C)(F)F)ccc1-c1ccc2cnc(CNC(=O)c3cc(F)c4c(c3)S(=O)(=O)[C@@H](F)COC4)cc2n1 ?
8.55

###

# TESTED TARGET: BRM (Homo sapiens)
Quick reference: pIC50 of the listed items.
FYI, pIC50 means -log10 of a concentration in mol per litre.

As a guide, the following entries are already answered.
| COMPOUND | NUMBER |
| --- | --- |
| O=C(NCc1cc2nc(N3CCOc4cc(N5CCC5)cnc43)ccc2cn1)c1cc(F)c2c(c1)S(=O)(=O)[C@@H](F)CCO2 | 8.24 |
| O=C(NCc1cc2nc(N3CCOc4cc(C5CC5)cnc43)ccc2cn1)c1cc(Cl)c2c(c1)S(=O)(=O)[C@@H](F)CCO2 | 8.19 |
| COCCOc1cnc2c(c1)CCCN2c1ccc2cnc(CNC(=O)c3cc(F)c4c(c3)S(=O)(=O)[C@@H](F)CCO4)cc2n1 | 8.05 |
| O=C(NCc1cc2nc(N3CCOc4cc([C@@H]5CC5(F)F)cnc43)ccc2cn1)c1cc(F)c2c(c1)S(=O)(=O)[C@@H](F)COC2 | 8.55 |
| COCCOc1nccc2c1CCCN2c1ccc2cnc(CNC(=O)c3cc(F)c4c(c3)S(=O)(=O)[C@@H](F)CCO4)cc2n1 | 8.01 |

pIC50 for COc1nc([C@@H](F)CF)ccc1-c1ccc2cnc(CNC(=O)c3cc(F)c4c(c3)S(=O)(=O)[C@@H](F)CCO4)cc2n1 ?
8.21

Query O=C(NCc1cc2cc(-c3cncc(C4CCC4)n3)ccc2cn1)c1cc(F)c2c(c1)S(=O)(=O)[C@@H](F)CCO2 next
8.03

###

What follows is a collection of pIC50 values obtained with BRG-1 (Homo sapiens).
Sequence (P51532 whole entry): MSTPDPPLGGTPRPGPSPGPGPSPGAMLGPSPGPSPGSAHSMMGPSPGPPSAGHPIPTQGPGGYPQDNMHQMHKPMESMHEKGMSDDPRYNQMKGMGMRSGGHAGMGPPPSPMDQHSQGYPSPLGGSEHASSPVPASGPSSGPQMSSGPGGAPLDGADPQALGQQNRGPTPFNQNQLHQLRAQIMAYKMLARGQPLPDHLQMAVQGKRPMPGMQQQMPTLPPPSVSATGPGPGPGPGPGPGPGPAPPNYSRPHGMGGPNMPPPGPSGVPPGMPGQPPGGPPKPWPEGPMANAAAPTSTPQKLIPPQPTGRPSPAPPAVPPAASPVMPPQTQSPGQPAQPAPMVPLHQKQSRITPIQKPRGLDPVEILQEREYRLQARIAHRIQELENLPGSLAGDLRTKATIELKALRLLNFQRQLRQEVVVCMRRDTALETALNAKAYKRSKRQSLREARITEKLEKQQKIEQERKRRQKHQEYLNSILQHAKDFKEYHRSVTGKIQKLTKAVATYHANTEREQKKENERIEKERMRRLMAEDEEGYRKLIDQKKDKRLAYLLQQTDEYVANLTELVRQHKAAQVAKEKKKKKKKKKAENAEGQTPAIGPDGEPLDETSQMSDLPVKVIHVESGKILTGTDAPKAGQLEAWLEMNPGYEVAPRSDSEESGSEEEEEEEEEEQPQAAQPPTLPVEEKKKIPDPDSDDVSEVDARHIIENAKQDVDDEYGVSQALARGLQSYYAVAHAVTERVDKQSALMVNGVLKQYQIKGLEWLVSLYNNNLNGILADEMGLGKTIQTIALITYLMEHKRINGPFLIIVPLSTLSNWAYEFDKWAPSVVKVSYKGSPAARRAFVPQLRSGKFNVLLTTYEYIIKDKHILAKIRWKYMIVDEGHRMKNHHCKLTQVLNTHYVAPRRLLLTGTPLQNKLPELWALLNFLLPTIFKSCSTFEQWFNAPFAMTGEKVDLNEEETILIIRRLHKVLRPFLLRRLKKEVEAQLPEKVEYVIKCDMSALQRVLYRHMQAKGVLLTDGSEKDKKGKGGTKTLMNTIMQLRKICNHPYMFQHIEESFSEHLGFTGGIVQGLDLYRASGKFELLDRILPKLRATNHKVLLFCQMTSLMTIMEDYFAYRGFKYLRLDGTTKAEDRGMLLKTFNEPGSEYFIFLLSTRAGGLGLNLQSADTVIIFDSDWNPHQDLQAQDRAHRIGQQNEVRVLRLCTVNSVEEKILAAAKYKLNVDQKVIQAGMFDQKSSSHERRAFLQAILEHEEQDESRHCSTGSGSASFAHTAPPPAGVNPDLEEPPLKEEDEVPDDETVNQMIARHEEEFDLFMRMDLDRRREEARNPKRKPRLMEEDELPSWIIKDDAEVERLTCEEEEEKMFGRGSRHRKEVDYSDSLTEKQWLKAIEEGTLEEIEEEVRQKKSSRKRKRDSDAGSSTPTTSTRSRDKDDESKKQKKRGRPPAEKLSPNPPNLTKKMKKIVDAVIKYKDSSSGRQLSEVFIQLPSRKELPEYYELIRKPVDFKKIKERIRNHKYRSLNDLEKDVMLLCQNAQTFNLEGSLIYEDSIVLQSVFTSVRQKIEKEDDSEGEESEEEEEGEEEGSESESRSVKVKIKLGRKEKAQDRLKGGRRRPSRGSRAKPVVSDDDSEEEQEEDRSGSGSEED
FYI, pIC50 means -log10 of a concentration in mol per litre.

| COMPOUND | pIC50 |
| --- | --- |
| COCCOc1nccc2c1CCCN2c1ccc2cnc(CNC(=O)c3cc(F)c4c(c3)S(=O)(=O)[C@@H](F)CCO4)cc2n1 | 6.76 |

What reported pIC50 corresponds to COc1nc(C(F)F)ccc1-c1ccc2cnc(CNC(=O)c3cc(C)c4c(c3)S(=O)(=O)[C@@H](F)COC4)cc2n1 on BRG-1 (Homo sapiens)?
7.15

Query O=C(NCc1cc2nc(N3CCOc4cc(N5CC(F)C5)cnc43)ccc2cn1)c1cc(F)c2c(c1)S(=O)(=O)[C@@H](F)CCO2 next
6.83

Query O=C(NCc1cc2nc(N3CCOc4cc([C@@H]5CC5(F)F)cnc43)ccc2cn1)c1cc(F)c2c(c1)S(=O)(=O)[C@@H](F)COC2 next
7.57

###

# Tested on: BRM-dependent transcription (BRG1 mutant lung cancer cell line A549)
# ASSAY COMMENT: BRM-dependent transcription, MMTV luciferase reporter in BRG1 mutant A549 cells
# Type: cell-based
# TEST CONDITIONS: MMTV luciferase reporter cell lines, selectivity BRG1/BRM, Table 11
METRIC: Ratio (MDA-MMTV IC50 (μM) divided by A549-MMTV IC50 (μM))
Could you respond with only the numeric value?

As a guide, the following entries are already answered.
| MOLECULE | NUMBER |
| --- | --- |
| O=C(NCc1cc2nc(-c3ccc(C(F)F)c(C4CC4)n3)ccc2cn1)c1cc(Cl)c2c(c1)S(=O)(=O)[C@@H](F)CCO2 [Compound 371] | 21.86 |
| COc1nc([C@@H](F)CF)ccc1-c1ccc2cnc(CNC(=O)c3cc(Br)c4c(c3)S(=O)(=O)[C@@H](F)CCO4)cc2n1 [Compound 383] | 24.64 |
| O=C(NCc1cc2nc(-c3ccc(OC(F)F)c([C@@H]4CC4(F)F)n3)ccc2cn1)c1cc(Cl)c2c(c1)S(=O)(=O)[C@@H](F)COC2 [Compound 449] | 37.87 |
| O=C(NCc1cc2nc(-c3ccnc(N4CCC4)n3)ccc2cn1)c1cc(F)c2c(c1)S(=O)(=O)[C@@H](F)CCO2 [Compound 343] | 24.93 |

Ratio (MDA-MMTV IC50 (μM) divided by A549-MMTV IC50 (μM)) for C[C@@H]1CCN1c1cnc2c(-c3ccc4cnc(CNC(=O)c5cc(Cl)c6c(c5)S(=O)(=O)[C@@H](F)COC6)cc4n3)cccc2c1 [Compound 498] ?
38.20

Query O=C(NCc1cc2nc(-c3cccc4c3OC(F)(F)O4)ccc2cn1)c1cc(F)c2c(c1)S(=O)(=O)[C@@H](F)COC2 [Compound 458] next
23.65

Query O=C(NCc1cc2nc(-c3ccc([C@H](F)C(F)F)c(C4CC4)n3)ccc2cn1)c1cc(F)c2c(c1)S(=O)(=O)[C@@H](F)COC2 [Compound 453] next
28.72

Query O=C(NCc1cc2nc(-c3ccc([C@H](F)C(F)F)c(C4CC4)n3)ccc2cn1)c1cc(Br)c2c(c1)S(=O)(=O)[C@@H](F)COC2 [Compound 492] next
24.09

Query [2H]C1([2H])Oc2c(Cl)cc(C(=O)NCc3cc4nc(-c5ccc(OC(F)F)c(C6CC6)n5)ccc4cn3)cc2S(=O)(=O)[C@@H](F)C1([2H])[2H] [Compound 419] next
28.69

Query Cc1ccc(-c2ccc3cnc(CNC(=O)c4cc(Cl)c5c(c4)S(=O)(=O)[C@@H](F)CCO5)cc3n2)c(OC(F)F)n1 [Compound 347] next
25.03

Query [2H]C([2H])([2H])Oc1ccc(-c2ccc3cnc(CNC(=O)c4cc(Br)c5c(c4)S(=O)(=O)[C@@H](F)COC5)cc3n2)nc1[C@H]1CC1(F)F [Compound 493] next
49.65

Query O=C(NCc1cc2nc(-c3ccc(OC(F)F)c(C4CC4)n3)ccc2cn1)c1cc(Br)c2c(c1)S(=O)(=O)[C@@H](F)CCO2 [Compound 400] next
47.75
